FYI, the data here is from patent US20140155445A1.

- target: HO-2 (rat brain) (Rattus norvegicus, UniProt P23711)
- Construct: brain microsomes were used as a source of HO-2; from tissue; host or cells: brain microsomal fraction of adult male Sprague-Dawley rats
- Sequence (P23711 whole entry): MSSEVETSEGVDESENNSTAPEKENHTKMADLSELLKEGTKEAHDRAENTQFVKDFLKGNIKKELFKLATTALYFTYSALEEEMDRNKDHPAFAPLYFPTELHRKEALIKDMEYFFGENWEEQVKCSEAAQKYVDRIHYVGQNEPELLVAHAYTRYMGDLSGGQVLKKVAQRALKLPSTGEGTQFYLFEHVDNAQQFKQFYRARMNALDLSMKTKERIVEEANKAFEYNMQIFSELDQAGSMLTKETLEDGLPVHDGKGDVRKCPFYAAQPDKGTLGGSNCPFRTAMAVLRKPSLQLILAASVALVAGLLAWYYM
- procedure-details: HO enzymatic activity in rat brain microsomal fraction (CO formed from methemalbumin, gas chromatography)
- Assay type: biochemical
- test-parameters: rat brain microsomes; average ± standard deviation of replicate experiments; read-out: IC50 HO-2 (rat brain)/μM
Where a name gives a salt, the structure may show the parent alone.

compound | target | IC50
COc1ccc(CCN2CCC(Nc3nc4cc(Cl)c(Cl)cc4n3Cc3ccc(F)cc3)CC2)cc1 | HO-2 (rat brain) (Rattus norvegicus, UniProt P23711) | > 100 µM
O=C(c1ccccc1)C(c1ccccc1)n1ccnc1 (racemic) [hydrochloride] | HO-2 (rat brain) (Rattus norvegicus, UniProt P23711) | > 100 µM
O=C(CCc1ccccc1)Cn1ccnc1-c1ccccc1 [hydrochloride] | HO-2 (rat brain) (Rattus norvegicus, UniProt P23711) | > 100 µM
O=C(CCc1ccccc1)Cn1cnc(-c2ccccc2)c1 [drawing 162, hydrochloride] | HO-2 (rat brain) (Rattus norvegicus, UniProt P23711) | > 100 µM
c1ccc(CCC2(Cn3nccn3)OCCO2)cc1 | HO-2 (rat brain) (Rattus norvegicus, UniProt P23711) | > 100 µM
c1ccc2cc(C3(Cn4ccnc4)OCCO3)ccc2c1 [hydrochloride] | HO-2 (rat brain) (Rattus norvegicus, UniProt P23711) | > 100 µM
Clc1ccc(C(Cn2ccnc2)NCc2ccccc2)cc1 (racemic) [dihydrochloride] | HO-2 (rat brain) (Rattus norvegicus, UniProt P23711) | 22 µM
Clc1ccc(C2(Cn3ccnc3)OCCO2)c(Cl)c1 [hydrochloride] | HO-2 (rat brain) (Rattus norvegicus, UniProt P23711) | > 100 µM
O=C(Cn1ccnc1)c1cccc(Br)c1 [hydrochloride] | HO-2 (rat brain) (Rattus norvegicus, UniProt P23711) | 35 µM
Clc1ccc(/C(Cn2ccnc2)=N\Nc2ccccc2)cc1 | HO-2 (rat brain) (Rattus norvegicus, UniProt P23711) | > 100 µM
Clc1ccc(CC[C@@]2(Cn3ccnc3)OCC(COc3ccc(Br)cc3)O2)cc1 (stereo in doubt) [hydrochloride] | HO-2 (rat brain) (Rattus norvegicus, UniProt P23711) | 22 µM
c1cn(Cc2ccc(Cn3ccnc3)cc2)cn1 [dihydrochloride] | HO-2 (rat brain) (Rattus norvegicus, UniProt P23711) | > 100 µM
Clc1ccc(CC[C@@]2(Cn3ccnc3)OCC(COc3ccc(I)cc3)O2)cc1 (stereo in doubt) [hydrochloride] | HO-2 (rat brain) (Rattus norvegicus, UniProt P23711) | 15 µM
O=C(Cn1cncn1)c1ccc2c(c1)OCCO2 | HO-2 (rat brain) (Rattus norvegicus, UniProt P23711) | > 100 µM
c1ccc(CCCn2ccnc2)cc1 [hydrochloride] | HO-2 (rat brain) (Rattus norvegicus, UniProt P23711) | > 100 µM
Clc1ccc(CC[C@@]2(Cn3ccnc3)OCC(COc3ccccc3)O2)cc1 (stereo in doubt) [hydrochloride] | HO-2 (rat brain) (Rattus norvegicus, UniProt P23711) | 1.6 µM
COc1ccc(CCN2CCC(Nc3nc4ccccc4n3Cc3ccc(F)cc3)CC2)cc1 [Astemizole, reference compound] | HO-2 (rat brain) (Rattus norvegicus, UniProt P23711) | 30 µM
Clc1ccc(CC[C@@]2(Cn3ccnc3)OC[C@@H](CSc3ccncc3)O2)cc1 [dihydrochloride] | HO-2 (rat brain) (Rattus norvegicus, UniProt P23711) | 69 µM
c1ccc2[nH]cnc2c1 [Benzimidazole, reference compound] | HO-2 (rat brain) (Rattus norvegicus, UniProt P23711) | > 100 µM
OC(CCc1ccccc1)Cn1cnc(-c2ccccc2)c1-c1ccccc1 (racemic) | HO-2 (rat brain) (Rattus norvegicus, UniProt P23711) | > 100 µM
Clc1ccc(C2(Cn3ccnc3)OCCO2)cc1Cl | HO-2 (rat brain) (Rattus norvegicus, UniProt P23711) | > 100 µM
Nc1ccc(SC[C@@H]2CO[C@@](CCc3ccc(Cl)cc3)(Cn3ccnc3)O2)cc1 [hydrochloride] | HO-2 (rat brain) (Rattus norvegicus, UniProt P23711) | 8 µM
COC(=O)Nc1nc2cc(C(=O)c3ccc(F)cc3)ccc2[nH]1 [Flubendazol, reference compound] | HO-2 (rat brain) (Rattus norvegicus, UniProt P23711) | > 100 µM
O=C(CCc1ccccc1)Cn1cccn1 [hydrochloride] | HO-2 (rat brain) (Rattus norvegicus, UniProt P23711) | > 100 µM
FC(F)(F)c1ccc(CCCCn2ccnc2)cc1 [hydrochloride] | HO-2 (rat brain) (Rattus norvegicus, UniProt P23711) | > 100 µM
O=C(Cn1ccnc1)c1ccc2c(c1)CCCC2 [hydrochloride] | HO-2 (rat brain) (Rattus norvegicus, UniProt P23711) | 6.7 µM
O=C(Cn1ccnc1)c1cc(Cl)ccc1Cl [hydrochloride] | HO-2 (rat brain) (Rattus norvegicus, UniProt P23711) | 58 µM
O=C(Cn1ccnc1)c1ccc(I)cc1 | HO-2 (rat brain) (Rattus norvegicus, UniProt P23711) | 25 µM
O=C(Cn1ccnc1)c1ccc(-c2ccc(Br)cc2)cc1 | HO-2 (rat brain) (Rattus norvegicus, UniProt P23711) | 0.43 µM
Clc1ccc(CC[C@]2(Cn3ccnc3)OC[C@@H](CSc3ccc4ccccc4c3)O2)cc1 [hydrochloride] | HO-2 (rat brain) (Rattus norvegicus, UniProt P23711) | 62 µM
Fc1ccc(CCC2(Cn3ccnc3)OCCO2)cc1 [hydrochloride] | HO-2 (rat brain) (Rattus norvegicus, UniProt P23711) | > 100 µM
C[C@H]1CO[C@](CCc2ccc(Cl)cc2)(Cn2ccnc2)O1 [hydrochloride] | HO-2 (rat brain) (Rattus norvegicus, UniProt P23711) | > 100 µM
O=C(CCc1ccccc1)Cn1nccn1 | HO-2 (rat brain) (Rattus norvegicus, UniProt P23711) | > 100 µM
Brc1cccc(C2(Cn3ccnc3)OCCO2)c1 [hydrochloride] | HO-2 (rat brain) (Rattus norvegicus, UniProt P23711) | > 100 µM
Fc1ccc(COC(Cn2ccnc2)c2ccc(-c3ccc(Br)cc3)cc2)cc1 (racemic) | HO-2 (rat brain) (Rattus norvegicus, UniProt P23711) | > 100 µM
c1cn(CCC23CC4CC(CC(C4)C2)C3)cn1 [hydrochloride] | HO-2 (rat brain) (Rattus norvegicus, UniProt P23711) | > 100 µM
O=C(CCc1ccccc1)Cn1nc(-c2ccccc2)nc1-c1ccccc1 | HO-2 (rat brain) (Rattus norvegicus, UniProt P23711) | > 100 µM
O=C(CCc1ccccc1)Cn1nnc(-c2ccccc2)n1 | HO-2 (rat brain) (Rattus norvegicus, UniProt P23711) | > 100 µM
O=C(Cn1cncn1)c1cccc2ccccc12 [hydrochloride] | HO-2 (rat brain) (Rattus norvegicus, UniProt P23711) | 16 µM
O=C(Cn1cncn1)c1ccc(Br)cc1 | HO-2 (rat brain) (Rattus norvegicus, UniProt P23711) | 50 µM

* * *

- target: HO-2 (rat brain) (Rattus norvegicus)
- Construct: brain microsomes were used as a source of HO-2; from tissue; host or cells: brain microsomal fraction of adult male Sprague-Dawley rats
- procedure-details: HO enzymatic activity in rat brain microsomal fraction (CO formed from methemalbumin, gas chromatography)
- Type: biochemical
- test-parameters: rat brain microsomes; average ± standard deviation of replicate experiments; read-out: IC50 HO-2 (rat brain)/μM
Counter-ions that a name gives are not always drawn.
Listed compounds paired with reported IC50

compound | target | IC50
O=C(Cn1cncn1)c1cc(Cl)ccc1Cl | HO-2 (rat brain) (Rattus norvegicus) | > 100 µM
c1ccc2[nH]c(CN3CCCC3)nc2c1 | HO-2 (rat brain) (Rattus norvegicus) | > 100 µM
Clc1ccc(CC[C@@]2(Cn3ccnc3)OC[C@@H](CSc3ccccc3)O2)cc1 [hydrochloride] | HO-2 (rat brain) (Rattus norvegicus) | 34 µM
c1ccc(CCC2(Cn3cnc(-c4ccccc4)c3)OCCO2)cc1 [hydrochloride] | HO-2 (rat brain) (Rattus norvegicus) | > 100 µM
Clc1ccc(C2(Cn3cncn3)OCCO2)cc1 | HO-2 (rat brain) (Rattus norvegicus) | > 100 µM
O=C(Cn1ccnc1)c1ccc2c(c1)CCC2 [hydrochloride] | HO-2 (rat brain) (Rattus norvegicus) | 37 µM
c1cn(C2C3CC4CC(C3)CC2C4)cn1 (stereo not shown) | HO-2 (rat brain) (Rattus norvegicus) | > 100 µM
C[C@@H]1CO[C@@](CCc2ccccc2)(Cn2ccnc2)O1 [hydrochloride] | HO-2 (rat brain) (Rattus norvegicus) | > 43 µM
COC(=O)Nc1nc2ccc(Sc3ccccc3)cc2[nH]1 [Fenbendazol, reference compound] | HO-2 (rat brain) (Rattus norvegicus) | > 100 µM
COCC1CO[C@@](CCc2ccc(Cl)cc2)(Cn2ccnc2)O1 (stereo in doubt) [hydrochloride] | HO-2 (rat brain) (Rattus norvegicus) | 3.3 µM

* * *

- procedure-details: Pharmacokinetic evaluation of QC-199 in mouse plasma and brain, IP or oral
- Format: in vivo
- test-parameters: male, CD-1, mouse, in vivo; brain, Oral 60 mg/kg

compound-structure | Tmax (min)
Brc1ccc(CCCCn2ccnc2)cc1.Cl | 10
